These measurements were taken from ChEMBL document CHEMBL4411315.

# Test system: HCT-116
# assayExplanation: Antiproliferative activity against human HCT116 cells after 72 hrs by MTT assay
# Assay type: functional, cell-based
# statedConditions: HCT-116, 72 h
measuredParameter: pIC50
Keep in mind that pIC50 stands for -log10 of concentration in molar terms.

In [3]: df
Out[3]:
                                  cpdsmiles  testresult
0  COc1ccc(-c2nc(N3CCOCC3)c3cnn(CCCCCCC(=O)NO)c3n2)cn1        7.17
1  Cc1cccnc1NC(=O)Nc1ccc(-c2nc(N3CCOCC3)c3cnn(CCCCCCC(=O)NO)c3n2)cc1        7.61

Moving on to another compound below.
stdin: Determine its reported pIC50: O=C(CCCCCCn1ncc2c(N3CCOCC3)nc(-c3cc[nH]c3)nc21)NO
stdout: 6.97

* * *

# Tested on: HCT-116
# assayExplanation: Antiproliferative activity against human HCT116 cells after 72 hrs by MTT assay
# Assay type: functional, cell-based
# statedConditions: HCT-116, 72 h
measuredParameter: pIC50
Keep in mind that pIC50 stands for -log10 of concentration in molar terms.

Some solved cases for reference:
>>> df
                                  cpdsmiles  measuredparameter  testresult
0  Cc1ccc(NC(=O)Nc2ccc(-c3nc(N4CCOCC4)c4cnn(CCCCCCC(=O)NO)c4n3)cc2)cc1              pIC50        7.58
1  O=C(CCCCCCn1ncc2c(N3CCOCC3)nc(-c3ccc(NC(=O)Nc4ncc(Br)cn4)cc3)nc21)NO              pIC50        6.84
2  Nc1ccc(-c2nc(N3CCOCC3)c3cnn(CCCCCCC(=O)NO)c3n2)cn1              pIC50        7.21

Moving on to another compound below.
stdin: Determine its reported pIC50: CN1CCN(C(=O)Nc2ccc(-c3nc(N4CCOCC4)c4cnn(CCCCCCC(=O)NO)c4n3)cc2)CC1
stdout: 7.08

* * *

# testTarget: Protein deacetylase HDAC6 (Homo sapiens, UniProt Q9UBN7)
# Sequence (Q9UBN7 whole entry): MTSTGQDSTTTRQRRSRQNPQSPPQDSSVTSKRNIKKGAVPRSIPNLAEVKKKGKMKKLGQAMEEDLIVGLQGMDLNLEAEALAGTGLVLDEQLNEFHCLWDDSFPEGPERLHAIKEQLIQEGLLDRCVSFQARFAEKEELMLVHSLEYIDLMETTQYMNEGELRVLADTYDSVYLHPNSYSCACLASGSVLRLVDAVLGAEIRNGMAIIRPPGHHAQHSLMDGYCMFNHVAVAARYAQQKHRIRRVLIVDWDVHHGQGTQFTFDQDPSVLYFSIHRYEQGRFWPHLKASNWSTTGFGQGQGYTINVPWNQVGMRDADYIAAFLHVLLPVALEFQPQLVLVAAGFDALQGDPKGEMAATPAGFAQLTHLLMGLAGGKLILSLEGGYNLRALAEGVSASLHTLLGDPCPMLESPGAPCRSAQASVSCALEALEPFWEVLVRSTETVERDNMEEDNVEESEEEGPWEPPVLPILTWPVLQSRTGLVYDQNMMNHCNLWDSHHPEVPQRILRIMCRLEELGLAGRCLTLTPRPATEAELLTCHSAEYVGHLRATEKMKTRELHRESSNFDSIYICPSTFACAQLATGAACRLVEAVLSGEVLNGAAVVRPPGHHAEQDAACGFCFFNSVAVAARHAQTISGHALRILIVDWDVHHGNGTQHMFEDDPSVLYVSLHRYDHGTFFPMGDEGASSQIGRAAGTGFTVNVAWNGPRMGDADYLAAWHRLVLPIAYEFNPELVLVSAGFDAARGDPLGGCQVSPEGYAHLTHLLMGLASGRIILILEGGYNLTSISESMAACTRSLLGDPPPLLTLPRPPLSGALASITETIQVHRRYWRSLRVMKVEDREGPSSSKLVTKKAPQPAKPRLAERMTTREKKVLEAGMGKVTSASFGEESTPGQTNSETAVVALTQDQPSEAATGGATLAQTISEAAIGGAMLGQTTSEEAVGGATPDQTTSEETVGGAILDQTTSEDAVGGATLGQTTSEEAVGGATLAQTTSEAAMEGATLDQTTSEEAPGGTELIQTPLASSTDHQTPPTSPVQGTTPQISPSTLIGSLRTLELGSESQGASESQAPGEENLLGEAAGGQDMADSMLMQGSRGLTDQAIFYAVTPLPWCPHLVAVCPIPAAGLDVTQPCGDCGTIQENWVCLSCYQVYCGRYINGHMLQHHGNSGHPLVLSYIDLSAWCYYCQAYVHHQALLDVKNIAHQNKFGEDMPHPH
# assayExplanation: Inhibition of recombinant full length HDAC6 (unknown origin) using Ac-peptide-AMC as substrate preincubated for 15 mins followed by substrate addition and measured after 1 hr by fluorescence assay
measuredParameter: IC50 (nM)
Report the value in nM with no unit label.

stdin: Determine its reported IC50: Nc1ccc(-c2nc(N3CCOCC3)c3cnn(CCCCCCC(=O)NO)c3n2)cc1
stdout: 2.43

stdin: Determine its reported IC50: C[C@@H]1CN(C(=O)Nc2ccc(-c3nc(N4CCOCC4)c4cnn(CCCCCCC(=O)NO)c4n3)cc2)CCO1
stdout: 1.8

* * *

# testTarget: PI3-kinase p110-alpha/p85-alpha (Homo sapiens) (UniProt P27986+P42336)
# assayExplanation: Inhibition of recombinant human full length N-terminal His-tagged/untagged p110alpha/p85alpha expressed in baculovirus expression system at 500 nM using PIP2 as substrate after 1 hr by Kinase-Glo reagent-based assay relative to control
measuredParameter: inhibition (%)
Report the value in % with no unit label.

Some solved cases for reference:
                                  cpdsmiles  testresult
0  O=C(CCCCn1ncc2c(N3CCOCC3)nc(N3CCOCC3)nc21)NO          15
1  O=C(CCCCCCn1ncc2c(N3CCOCC3)nc(-c3cc[nH]c3)nc21)NO        -3.8
2  CS(=O)(=O)c1ccc(-c2nc(N3CCOCC3)c3cnn(CCCCCCC(=O)NO)c3n2)cc1          31
3  O=C(CCCCCCn1ncc2c(N3CCOCC3)nc(-c3ccoc3)nc21)NO         8.4
4  COc1ccc(-c2nc(N3CCOCC3)c3cnn(CCCCCCC(=O)NO)c3n2)cn1         3.3
5  Nc1ccc(-c2nc(N3CCOCC3)c3cnn(CCCCCCC(=O)NO)c3n2)cn1         1.9
6  O=C(Cn1ncc2c(N3CCOCC3)nc(N3CCOCC3)nc21)NO         5.9
7  CN1CCN(c2nc(N3CCOCC3)c3cnn(CCCCCCC(=O)NO)c3n2)CC1        -6.2

stdin: Determine its reported inhibition: O=C(CCCCCCn1ncc2c(N3CCOCC3)nc(-c3cccnc3)nc21)NO
stdout: -0.1

stdin: Determine its reported inhibition: O=C(CCn1ncc2c(N3CCOCC3)nc(N3CCOCC3)nc21)NO
stdout: 11

* * *

# testTarget: UniProt:Q92769
# Sequence (Q92769 whole entry): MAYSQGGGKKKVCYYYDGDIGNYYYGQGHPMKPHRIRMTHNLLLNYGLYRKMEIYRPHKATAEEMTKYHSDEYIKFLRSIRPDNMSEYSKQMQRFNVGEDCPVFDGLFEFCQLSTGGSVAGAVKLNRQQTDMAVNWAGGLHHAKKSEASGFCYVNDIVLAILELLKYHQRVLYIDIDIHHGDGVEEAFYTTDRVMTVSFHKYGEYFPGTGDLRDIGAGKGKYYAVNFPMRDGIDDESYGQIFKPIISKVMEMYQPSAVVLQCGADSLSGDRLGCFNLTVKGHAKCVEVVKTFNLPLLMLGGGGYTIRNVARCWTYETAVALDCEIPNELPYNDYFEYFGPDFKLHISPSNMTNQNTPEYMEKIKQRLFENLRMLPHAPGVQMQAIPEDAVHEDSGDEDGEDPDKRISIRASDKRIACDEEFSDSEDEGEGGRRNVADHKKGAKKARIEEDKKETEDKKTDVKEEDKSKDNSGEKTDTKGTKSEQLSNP
# assayExplanation: Inhibition of recombinant full length human HDAC2 expressed in baculovirus expression system using Ac-peptide-AMC as substrate preincubated for 15 mins followed by substrate addition and measured after 1 hr by fluorescence assay
measuredParameter: IC50

In [3]: df
Out[3]:
                                  cpdsmiles  testresult
0  C[C@@H]1CN(C(=O)Nc2ccc(-c3nc(N4CCOCC4)c4cnn(CCCCCCC(=O)NO)c4n3)cc2)CCO1     0.61 nM

stdin: Determine its reported IC50: Nc1ccc(-c2nc(N3CCOCC3)c3cnn(CCCCCCC(=O)NO)c3n2)cc1
stdout: 1.6 nM

* * *

# testTarget: Histone deacetylase 8 (Homo sapiens, UniProt Q9BY41)
# Sequence (Q9BY41 whole entry): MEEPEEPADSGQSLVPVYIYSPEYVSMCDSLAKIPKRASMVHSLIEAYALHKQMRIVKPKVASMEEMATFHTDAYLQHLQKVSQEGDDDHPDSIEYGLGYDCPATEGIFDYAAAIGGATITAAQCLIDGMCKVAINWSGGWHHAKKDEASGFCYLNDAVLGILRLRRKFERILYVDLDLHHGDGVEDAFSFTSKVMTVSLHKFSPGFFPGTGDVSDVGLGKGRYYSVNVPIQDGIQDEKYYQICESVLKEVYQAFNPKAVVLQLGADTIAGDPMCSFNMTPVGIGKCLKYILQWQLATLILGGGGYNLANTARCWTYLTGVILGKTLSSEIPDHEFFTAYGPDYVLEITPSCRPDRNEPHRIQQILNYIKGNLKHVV
# assayExplanation: Inhibition of recombinant full length C-terminal His-tagged human HDAC8 expressed in baculovirus expression system using Ac-peptide-AMC as substrate preincubated for 15 mins followed by substrate addition and measured after 1 hr by fluorescence assay
Measured IC50 of individual entries
Report the value in nM with no unit label.

stdin: Determine its reported IC50: C[C@@H]1CN(C(=O)Nc2ccc(-c3nc(N4CCOCC4)c4cnn(CCCCCCC(=O)NO)c4n3)cc2)CCO1
stdout: 1.28

stdin: Determine its reported IC50: Nc1ccc(-c2nc(N3CCOCC3)c3cnn(CCCCCCC(=O)NO)c3n2)cc1
stdout: 35.7

* * *

# System: HCT-116
# assayExplanation: Antiproliferative activity against human HCT116 cells after 72 hrs by MTT assay
# Assay type: functional, cell-based
# statedConditions: HCT-116, 72 h
Measured pIC50 of individual entries
Keep in mind that pIC50 stands for -log10 of concentration in molar terms.

Some solved cases for reference:
                                  cpdsmiles  testresult
0  CCN1CCN(C(=O)Nc2ccc(-c3nc(N4CCOCC4)c4cnn(CCCCCCC(=O)NO)c4n3)cc2)CC1        7.37
1  O=C(CCCCCCn1ncc2c(N3CCOCC3)nc(N3CCOCC3)nc21)NO        7.05
2  COc1ccc(-c2nc(N3CCOCC3)c3cnn(CCCCCCC(=O)NO)c3n2)cc1        7.42
3  O=C(CCCCCCn1ncc2c(N3CCOCC3)nc(-c3ccc(NC(=O)N4CCSCC4)cc3)nc21)NO        7.17

Moving on to another compound below.
stdin: Write pIC50 of CCNC(=O)Nc1ccc(-c2nc(N3CCOCC3)c3cnn(CCCCCCC(=O)NO)c3n2)cc1 ; system used: HCT-116
stdout: 7.21

* * *

# testTarget: Histone deacetylase 7 (Homo sapiens, UniProt Q8WUI4)
# Sequence (Q8WUI4 whole entry): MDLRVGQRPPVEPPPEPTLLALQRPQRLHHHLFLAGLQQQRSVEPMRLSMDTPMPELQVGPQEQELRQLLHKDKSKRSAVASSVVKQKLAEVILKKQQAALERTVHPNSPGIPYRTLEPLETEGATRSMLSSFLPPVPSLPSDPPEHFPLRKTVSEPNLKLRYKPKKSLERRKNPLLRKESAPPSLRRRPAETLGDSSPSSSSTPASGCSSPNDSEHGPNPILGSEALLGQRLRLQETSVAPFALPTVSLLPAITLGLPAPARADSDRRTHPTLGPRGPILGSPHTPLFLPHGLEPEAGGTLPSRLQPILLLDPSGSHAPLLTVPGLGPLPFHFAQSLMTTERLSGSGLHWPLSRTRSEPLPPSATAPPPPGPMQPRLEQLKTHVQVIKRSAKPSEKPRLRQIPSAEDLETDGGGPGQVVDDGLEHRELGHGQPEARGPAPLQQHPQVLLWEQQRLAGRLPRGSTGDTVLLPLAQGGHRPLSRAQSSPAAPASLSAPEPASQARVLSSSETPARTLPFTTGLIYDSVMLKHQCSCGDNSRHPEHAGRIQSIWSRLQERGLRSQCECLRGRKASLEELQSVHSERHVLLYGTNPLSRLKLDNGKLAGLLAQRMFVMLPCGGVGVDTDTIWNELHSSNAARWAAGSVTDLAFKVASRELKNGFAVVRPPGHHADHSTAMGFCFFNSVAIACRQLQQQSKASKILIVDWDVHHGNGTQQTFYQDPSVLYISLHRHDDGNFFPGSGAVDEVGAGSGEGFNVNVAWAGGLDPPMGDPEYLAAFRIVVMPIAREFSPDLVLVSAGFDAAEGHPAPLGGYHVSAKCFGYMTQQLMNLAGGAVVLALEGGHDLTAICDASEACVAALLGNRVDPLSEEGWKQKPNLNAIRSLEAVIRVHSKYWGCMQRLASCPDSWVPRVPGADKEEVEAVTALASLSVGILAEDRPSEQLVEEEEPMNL
# assayExplanation: Inhibition of recombinant full length N-terminal GST-tagged human HDAC7 expressed in baculovirus expression system using Ac-peptide-AMC as substrate preincubated for 15 mins followed by substrate addition and measured after 1 hr by fluorescence assay
pIC50: −log10 of the molar value.
measuredParameter: pIC50

stdin: Determine its reported pIC50: C[C@@H]1CN(C(=O)Nc2ccc(-c3nc(N4CCOCC4)c4cnn(CCCCCCC(=O)NO)c4n3)cc2)CCO1
stdout: < 6.00

* * *

# testTarget: Histone deacetylase 11 (Homo sapiens, UniProt Q96DB2)
# Sequence (Q96DB2 whole entry): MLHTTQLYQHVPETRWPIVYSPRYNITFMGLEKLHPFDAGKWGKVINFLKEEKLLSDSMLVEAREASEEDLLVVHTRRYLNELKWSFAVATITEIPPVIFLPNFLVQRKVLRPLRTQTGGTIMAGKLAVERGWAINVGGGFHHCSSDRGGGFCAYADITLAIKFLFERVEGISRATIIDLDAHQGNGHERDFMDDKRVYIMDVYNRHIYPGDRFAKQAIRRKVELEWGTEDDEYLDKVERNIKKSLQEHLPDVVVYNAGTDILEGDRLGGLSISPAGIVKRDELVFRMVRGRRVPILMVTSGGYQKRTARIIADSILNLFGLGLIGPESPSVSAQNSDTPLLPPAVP
# assayExplanation: Inhibition of recombinant full length N-terminal GST-tagged human HDAC11 expressed in baculovirus expression system using Ac-peptide-AMC as substrate preincubated for 15 mins followed by substrate addition and measured after 1 hr by fluorescence assay
measuredParameter: IC50

stdin: Determine its reported IC50: C[C@@H]1CN(C(=O)Nc2ccc(-c3nc(N4CCOCC4)c4cnn(CCCCCCC(=O)NO)c4n3)cc2)CCO1
stdout: > 1 µM

* * *

Measured IC50 of individual entries
# Tested on: HCT-116
# assayExplanation: Antiproliferative activity against human HCT116 cells after 72 hrs by MTT assay
# Format: functional, cell-based
# statedConditions: HCT-116, 72 h
Report the value in nM with no unit label.

Some solved cases for reference:
>>> df
                                  cpdsmiles  testtarget  measuredparameter  testresult
0  CCCNC(=O)Nc1ccc(-c2nc(N3CCOCC3)c3cnn(CCCCCCC(=O)NO)c3n2)cc1     HCT-116               IC50         104
1  O=C(CCCCCCn1ncc2c(N3CCOCC3)nc(-c3cccnc3)nc21)NO     HCT-116               IC50         296
2  CNC(=O)Nc1ccc(-c2nc(N3CCOCC3)c3cnn(CCCCCCC(=O)NO)c3n2)cc1     HCT-116               IC50        51.6

stdin: Determine its reported IC50: O=C(CCCCCCn1ncc2c(N3CCOCC3)nc(-c3ccoc3)nc21)NO
stdout: 34.9

stdin: Determine its reported IC50: CS(=O)(=O)c1ccc(-c2nc(N3CCOCC3)c3cnn(CCCCCCC(=O)NO)c3n2)cc1
stdout: 76.5
